This collection of values is drawn from paper PMC8305169.

- Test Target: PltZ (Pseudomonas protegens)
- Construct: full-length, N-terminal 6xHis tag (pET28a), expressed in E. coli BL21 (DE3), Ni-NTA purified
- Sequence (Q4KCY3 entry or part of it): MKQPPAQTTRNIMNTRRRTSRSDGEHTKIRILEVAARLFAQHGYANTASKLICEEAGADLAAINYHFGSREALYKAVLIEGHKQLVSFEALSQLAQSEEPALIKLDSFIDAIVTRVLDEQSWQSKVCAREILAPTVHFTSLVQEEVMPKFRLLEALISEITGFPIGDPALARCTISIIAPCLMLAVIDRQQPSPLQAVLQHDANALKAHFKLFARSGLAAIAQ
- Assay Summary: isothermal titration calorimetry
Observable: Kd

O=C(c1cc(Cl)c(Cl)[nH]1)c1c(O)cccc1O : ~13.2 nM
